molecular target: AChE (from electric eel) (Electrophorus electricus, UniProt O42275); construct: AChE (from electric eel); from tissue; assay: biochemical; assay type: biochemical
Sequence (O42275 24-633): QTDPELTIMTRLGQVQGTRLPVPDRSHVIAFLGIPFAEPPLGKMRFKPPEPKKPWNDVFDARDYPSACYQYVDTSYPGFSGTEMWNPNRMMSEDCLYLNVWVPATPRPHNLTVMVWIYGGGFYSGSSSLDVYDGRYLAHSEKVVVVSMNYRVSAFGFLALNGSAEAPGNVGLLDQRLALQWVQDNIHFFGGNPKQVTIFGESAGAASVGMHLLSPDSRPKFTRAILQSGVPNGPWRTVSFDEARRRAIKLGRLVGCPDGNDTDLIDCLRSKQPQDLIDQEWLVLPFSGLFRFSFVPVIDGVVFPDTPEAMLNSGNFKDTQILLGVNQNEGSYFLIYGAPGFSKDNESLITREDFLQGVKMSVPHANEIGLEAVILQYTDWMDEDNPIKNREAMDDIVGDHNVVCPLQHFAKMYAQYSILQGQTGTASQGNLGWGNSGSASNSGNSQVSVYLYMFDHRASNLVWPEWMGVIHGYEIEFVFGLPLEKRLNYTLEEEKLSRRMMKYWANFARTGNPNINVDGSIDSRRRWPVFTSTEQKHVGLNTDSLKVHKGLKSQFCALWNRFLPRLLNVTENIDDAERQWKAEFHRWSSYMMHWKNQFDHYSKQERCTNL
Reported values of SI (selectivity index) = K I (AChE)/ K I (BChE) for individual entries
Please reply with the value in numeric form only.

COc1ccc(C2=NN(c3nc(-c4ccccc4)cs3)C(c3ccc(C)s3)C2)cc1OC (stereo not drawn) [Compound 3a] ... 0.660
COc1ccc(C2=NN(c3nc(-c4ccc(F)cc4)cs3)C(c3ccc(C)s3)C2)cc1OC (stereo not drawn) [Compound 3e] ... 0.082

Note: attention shifts to another entry.
What measured SI (selectivity index) = K I (AChE)/ K I (BChE) goes with COc1ccc(C2=NN(c3nc(-c4ccc(Cl)cc4)cs3)C(c3ccc(C)s3)C2)cc1OC (stereo not drawn) [Compound 3d] ?
0.074
